# SYSTEM: PAK1 (Homo sapiens, UniProt Q13153)
# Sequence (Q13153 whole entry): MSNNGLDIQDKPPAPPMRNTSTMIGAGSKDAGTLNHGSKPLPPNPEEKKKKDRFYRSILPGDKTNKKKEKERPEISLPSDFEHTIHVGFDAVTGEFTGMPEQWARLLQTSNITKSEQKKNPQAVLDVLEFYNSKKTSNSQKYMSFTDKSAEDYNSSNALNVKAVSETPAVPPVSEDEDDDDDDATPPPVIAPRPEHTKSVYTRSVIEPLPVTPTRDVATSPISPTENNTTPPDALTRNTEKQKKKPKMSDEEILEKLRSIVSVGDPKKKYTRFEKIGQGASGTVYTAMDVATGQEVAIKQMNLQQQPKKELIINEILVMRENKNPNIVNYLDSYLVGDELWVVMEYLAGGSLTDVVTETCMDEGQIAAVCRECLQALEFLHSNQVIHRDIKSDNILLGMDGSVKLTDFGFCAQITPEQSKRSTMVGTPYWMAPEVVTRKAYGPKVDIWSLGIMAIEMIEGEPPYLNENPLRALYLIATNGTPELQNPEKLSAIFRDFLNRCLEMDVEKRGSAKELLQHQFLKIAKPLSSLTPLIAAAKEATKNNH
# ASSAY_INFO: Additional in vitro PAK1 inhibition assay at ATP 10 uM and 1 mM
# Assay type: biochemical
# CONDITION: 1 mM ATP; read-out: PAK1 IC50 (1 mM ATP)
pIC50: −log10 of the molar value.

{"columns": ["COMPOUND", "pIC50"],
 "data": [
  ["Cc1nc(-c2ccc(-c3cc4cnc(NC5CCOCC5)nc4n(CC(=O)NC4CCCNC4)c3=O)c(Cl)c2)no1 (stereo not shown)", "≤ 5.30"],
  ["CCn1c(=O)c(-c2ccc(-c3noc(C)n3)cc2Cl)cc2cnc(N[C@H]3COC[C@H]3O)nc21", "≤ 5.30"],
  ["CCn1c(=O)c(-c2ccc(-c3noc(C)n3)cc2Cl)cc2cnc(N[C@@H]3CCO[C@@H]3N3CCN(C)CC3)nc21", "≤ 5.30"],
  ["CCn1c(=O)c(-c2ccc(-c3noc(C)n3)cc2Cl)cc2cnc(NCc3ccncc3)nc21", "≤ 5.30"]
]}

====

# SYSTEM: PAK1 (Homo sapiens)
# ASSAY_INFO: Additional in vitro PAK1 inhibition assay at ATP 10 uM and 1 mM
# Format: biochemical
# CONDITION: 1 mM ATP; read-out: PAK1 IC50 (1 mM ATP)
Overview of recorded IC50 for various molecules

{"columns": ["MOLECULE", "SYSTEM", "IC50"],
 "data": [
  ["CCn1c(=O)c(-c2ccc(-c3noc(C)n3)cc2Cl)cc2cnc(NCCCN(C)C)nc21", "PAK1 (Homo sapiens)", "≥ 5 µM"],
  ["Cc1nc(-c2ccc(-c3cc4cnc(N[C@H]5C[C@@H]5C)nc4n(CC4CCNCC4)c3=O)c(Cl)c2)no1", "PAK1 (Homo sapiens)", "0.5 to 5 µM"],
  ["Cc1nc(-c2ccc(-c3cc4cnc(NC5CCOCC5)nc4n(Cc4cccc(OCCN)c4)c3=O)c(Cl)c2)no1 [drawing 344]", "PAK1 (Homo sapiens)", "0.5 to 5 µM"],
  ["CCn1c(=O)c(-c2ccc(-c3noc(C)n3)cc2Cl)cc2cnc(NCC3CCCO3)nc21 (centres unmarked)", "PAK1 (Homo sapiens)", "≥ 5 µM"],
  ["Cc1nc(-c2ccc(-c3cc4cnc(NC5CCOCC5)nc4n(C4CCN(C5CCNCC5)C4)c3=O)c(Cl)c2)no1 (centres unmarked)", "PAK1 (Homo sapiens)", "≥ 5 µM"],
  ["CCn1c(=O)c(-c2ccc(-c3noc(C)n3)cc2Cl)cc2cnc(NC3COC3)nc21", "PAK1 (Homo sapiens)", "≥ 5 µM"],
  ["Cc1nc(-c2ccc(-c3cc4cnc(NC5CCOCC5)nc4n(CC4CCCNC4)c3=O)c(Cl)c2)no1 (centres unmarked)", "PAK1 (Homo sapiens)", "≥ 5 µM"],
  ["CCn1c(=O)c(-c2ccc(-c3noc(C)n3)cc2Cl)cc2cnc(NCC3CCOC3)nc21 (centres unmarked)", "PAK1 (Homo sapiens)", "≥ 5 µM"]
]}

====

# SYSTEM: PAK4 (Homo sapiens, UniProt O96013)
# Sequence (O96013 whole entry): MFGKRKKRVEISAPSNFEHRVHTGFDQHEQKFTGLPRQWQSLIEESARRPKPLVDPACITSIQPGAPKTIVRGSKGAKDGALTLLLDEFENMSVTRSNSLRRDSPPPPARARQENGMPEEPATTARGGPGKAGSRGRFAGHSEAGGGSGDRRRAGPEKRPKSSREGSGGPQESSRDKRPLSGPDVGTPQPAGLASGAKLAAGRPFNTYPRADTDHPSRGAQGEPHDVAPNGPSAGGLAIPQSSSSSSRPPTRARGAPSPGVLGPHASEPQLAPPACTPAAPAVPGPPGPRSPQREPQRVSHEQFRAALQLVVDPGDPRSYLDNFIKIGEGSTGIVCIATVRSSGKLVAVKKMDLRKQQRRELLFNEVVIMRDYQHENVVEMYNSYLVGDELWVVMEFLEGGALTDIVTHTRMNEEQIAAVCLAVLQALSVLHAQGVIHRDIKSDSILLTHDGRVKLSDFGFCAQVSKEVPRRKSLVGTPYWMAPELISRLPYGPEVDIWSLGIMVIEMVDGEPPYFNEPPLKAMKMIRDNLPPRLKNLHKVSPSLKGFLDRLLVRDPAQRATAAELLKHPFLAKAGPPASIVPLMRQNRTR
# ASSAY_INFO: In vitro PAK inhibition assay (Z'-LYTE, SelectScreen), PAK4
# Format: biochemical
READOUT_NAME: IC50

{"columns": ["COMPOUND", "TEST_RESULT"],
 "data": [
  ["CCn1c(=O)c(-c2ccc(-c3nccnc3C)cc2Cl)cc2cnc(N[C@H]3CCOC(C)(C)C3)nc21 (stereo in doubt)", "> 5 µM"],
  ["Cc1nc(-c2ccc(-c3cc4cnc(NC5CCOCC5)nc4[nH]c3=O)c(Cl)c2)no1", "> 5 µM"],
  ["CCn1c(=O)c(-c2ccc(-c3cccnc3F)cc2Cl)cc2cnc(N[C@@H]3CCOC3)nc21", "> 5 µM"],
  ["CCn1c(=O)c(-c2ccc(-c3cncc(C)n3)cc2Cl)cc2cnc(NCCC3CCN(C)CC3)nc21", "> 5 µM"],
  ["Cc1nccnc1-c1ccc(-c2cc3cnc(NC4CC4)nc3n([C@H]3CC[C@H](N)CC3)c2=O)c(Cl)c1", "> 5 µM"],
  ["CCn1c(=O)c(-c2ccc(-c3noc(C)n3)cc2Cl)cc2cnc(NC3CCOCC3)nc21", "> 5 µM"],
  ["CCn1c(=O)c(-c2ccc(-c3cccnc3)cc2Cl)cc2cnc(NC3CCOCC3)nc21", "> 5 µM"]
]}

====

# SYSTEM: UniProtKB Q13177
# Sequence (Q13177 whole entry): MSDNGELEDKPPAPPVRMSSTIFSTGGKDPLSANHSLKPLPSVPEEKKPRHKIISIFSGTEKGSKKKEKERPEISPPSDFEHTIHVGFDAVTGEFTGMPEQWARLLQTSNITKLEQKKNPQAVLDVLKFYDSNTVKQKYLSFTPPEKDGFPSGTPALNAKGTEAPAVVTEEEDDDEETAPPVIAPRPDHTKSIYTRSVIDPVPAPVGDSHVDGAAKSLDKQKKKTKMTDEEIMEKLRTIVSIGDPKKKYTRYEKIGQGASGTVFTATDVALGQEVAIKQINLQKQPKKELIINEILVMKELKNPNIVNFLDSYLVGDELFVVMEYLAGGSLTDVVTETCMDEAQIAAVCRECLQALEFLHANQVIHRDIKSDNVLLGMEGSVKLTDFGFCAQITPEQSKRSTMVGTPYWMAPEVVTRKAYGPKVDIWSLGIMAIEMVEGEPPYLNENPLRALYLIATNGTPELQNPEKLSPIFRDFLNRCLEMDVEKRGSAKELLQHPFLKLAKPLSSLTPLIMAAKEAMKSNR
# ASSAY_INFO: In vitro PAK inhibition assay (Z'-LYTE, SelectScreen), PAK2
# Assay type: biochemical
# CONDITION: read-out: PAK2 IC50
READOUT_NAME: IC50

{"columns": ["MOLECULE", "TEST_RESULT"],
 "data": [
  ["CCn1c(=O)c(-c2ccc(-c3cnccc3C)cc2Cl)cc2cnc(NC3CCOCC3)nc21 [Example 47]", "500 to 5000 nM"],
  ["Cc1cncc(-c2ccc(-c3cc4cnc(N[C@@H]5CCOC5)nc4n(CCCN(C)C)c3=O)c(Cl)c2)n1 [Example 101]", "< 50 nM"],
  ["Cc1nccnc1-c1ccc(-c2cc3cnc(NC4CC4)nc3n([C@H]3CC[C@H](N)CC3)c2=O)c(Cl)c1 [Example 119]", "< 50 nM"],
  ["Cc1nccnc1-c1ccc(-c2cc3cnc(N[C@@H]4CCOC4)nc3n(Cc3cccnc3)c2=O)c(Cl)c1 [Example 122]", "< 50 nM"],
  ["CCn1c(=O)c(-c2ccc(-c3cnc(C)cn3)cc2Cl)cc2cnc(N[C@@H]3CCOC3)nc21 [Example 50]", "50 to 500 nM"],
  ["CCn1c(=O)c(-c2ccc(-c3nccnc3C)cc2Cl)cc2cnc(NC3CCSCC3)nc21 [Example 18]", "50 to 500 nM"],
  ["CCn1c(=O)c(-c2ccc(-c3cncc(C)n3)cc2Cl)cc2cnc(NCCCOCCCN(C)C)nc21 [Example 130]", "50 to 500 nM"],
  ["Cc1cncc(-c2ccc(-c3cc4cnc(NC(C)C)nc4n([C@H]4CC[C@H](N)CC4)c3=O)c(Cl)c2)n1 [Example 116]", "< 50 nM"],
  ["CCn1c(=O)c(-c2ccc(-c3cncc(C)n3)cc2Cl)cc2cnc(NCCOCCN(C)C)nc21 [Example 127]", "50 to 500 nM"],
  ["CCn1c(=O)c(-c2ccc(-c3cccnc3O)cc2Cl)cc2cnc(NC3CCOCC3)nc21 [Example 48]", "50 to 500 nM"],
  ["CCn1c(=O)c(-c2ccc(-c3cccnc3)cc2Cl)cc2cnc(N[C@@H]3CCOC3)nc21 [Example 51]", "50 to 500 nM"],
  ["CCn1c(=O)c(-c2ccc(-c3nccnc3C)cc2Cl)cc2cnc(NC3CCCCC3)nc21 [Example 3]", "500 to 5000 nM"],
  ["CCn1c(=O)c(-c2ccc(-c3cncc(C)c3)cc2Cl)cc2cnc(N[C@@H]3CCOC3)nc21 [Example 61]", "50 to 500 nM"],
  ["Cc1cncc(-c2ccc(-c3cc4cnc(NC5CC5)nc4n(CCN)c3=O)c(Cl)c2)n1 [Example 111]", "50 to 500 nM"],
  ["CCn1c(=O)c(-c2ccc(-c3nccnc3C)cc2Cl)cc2cnc(NCCC3CCN(C)CC3)nc21 [Example 91]", "< 50 nM"],
  ["COCCn1c(=O)c(-c2ccc(-c3cnccn3)cc2Cl)cc2cnc(NC3CCOC3)nc21 (stereo not drawn) [Example 53]", "50 to 500 nM"],
  ["CCn1c(=O)c(-c2ccc(-c3noc(C)n3)cc2Cl)cc2cnc(NCCC3CCN(C)CC3)nc21 [Example 93]", "< 50 nM"],
  ["CCn1c(=O)c(-c2ccc(-c3nccnc3C)cc2Cl)cc2cnc(NC3CCCN(C)C3)nc21 (stereo not drawn) [Example 81]", "50 to 500 nM"],
  ["Cc1cncc(-c2ccc(-c3cc4cnc(NC5CCCC5)nc4n([C@H]4CC[C@H](N)CC4)c3=O)c(Cl)c2)n1 [Example 118]", "< 50 nM"],
  ["CCn1c(=O)c(-c2ccc(-c3cncc(C)n3)cc2Cl)cc2cnc(NC3CCC(CCN)CC3)nc21 (stereo not drawn) [Example 134]", "< 50 nM"],
  ["O=c1c(-c2ccc(-c3cccnc3)cc2Cl)cc2cnc(NC3CCOCC3)nc2n1Cc1ccccc1C(F)(F)F [Example 22]", "< 50 nM"],
  ["CCn1c(=O)c(-c2ccc(-c3cncc(C)n3)cc2Cl)cc2cnc(NCCC3CCNCC3)nc21 [Example 135]", "< 50 nM"],
  ["Cc1cncc(-c2ccc(-c3cc4cnc(NCC5CC5)nc4n([C@H]4CC[C@H](N)CC4)c3=O)c(Cl)c2)n1 [Example 113]", "< 50 nM"],
  ["CCn1c(=O)c(-c2ccc(-c3nccnc3C)cc2C)cc2cnc(NC3CCOCC3)nc21 [Example 1]", "50 to 500 nM"],
  ["CCn1c(=O)c(-c2ccc(-c3cncc(C)n3)cc2Cl)cc2cnc(N[C@H]3CC[C@H](CN)CC3)nc21 [Example 87]", "< 50 nM"],
  ["Cc1cncc(-c2ccc(-c3cc4cnc(N[C@@H]5CCOC5)nc4n(C4CCNCC4)c3=O)c(Cl)c2)n1 [Example 105]", "50 to 500 nM"],
  ["CCN(CC)CCn1c(=O)c(-c2ccc(-c3cncc(C)n3)cc2Cl)cc2cnc(N[C@@H]3CCOC3)nc21 [Example 96]", "50 to 500 nM"],
  ["Cc1cncc(-c2ccc(-c3cc4cnc(N[C@H]5CCOC5)nc4n(CCN(C)C)c3=O)c(Cl)c2)n1 [Example 103]", "50 to 500 nM"],
  ["CCn1c(=O)c(-c2ccc(-c3cccnc3C)cc2Cl)cc2cnc(N[C@@H]3CCOC3)nc21 [Example 59]", "500 to 5000 nM"],
  ["CCn1c(=O)c(-c2ccc(-c3nccnc3C)cc2Cl)cc2cnc(NC3CCN(C(C)=O)C3)nc21 (stereo not drawn) [Example 19]", "50 to 500 nM"]
]}
